Taken from the supplement of paper PMC11908140.

B1: library; numbered along this chain (parent)
chain: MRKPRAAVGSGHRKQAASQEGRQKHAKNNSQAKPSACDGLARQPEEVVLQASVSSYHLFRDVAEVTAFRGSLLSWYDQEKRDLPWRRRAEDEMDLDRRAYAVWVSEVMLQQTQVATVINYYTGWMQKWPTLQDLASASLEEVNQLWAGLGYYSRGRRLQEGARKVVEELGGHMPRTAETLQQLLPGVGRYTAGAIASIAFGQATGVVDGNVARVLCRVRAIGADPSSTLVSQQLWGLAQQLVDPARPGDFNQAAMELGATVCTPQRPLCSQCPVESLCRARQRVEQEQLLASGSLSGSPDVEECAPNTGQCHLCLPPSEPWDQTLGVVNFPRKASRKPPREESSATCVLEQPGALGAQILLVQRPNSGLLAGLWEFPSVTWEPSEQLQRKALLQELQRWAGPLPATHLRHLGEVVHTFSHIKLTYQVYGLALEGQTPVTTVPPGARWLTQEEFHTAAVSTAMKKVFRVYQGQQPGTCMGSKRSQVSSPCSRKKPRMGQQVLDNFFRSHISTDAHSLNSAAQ

Variants of: B1
Experiment: 8OG:A repair function score (normalized; synonymous = 0, nonsense = -1) (normalized log-likelihood score); higher = more repair activity (WT-like);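 further: cells sorted at 72 h after reporter transfection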
Conditions: with 8OG:A DNA repair reporter (GFP) in HEK-293 MUTYH KO cells
Class boundaries, taken from values of 8OG:A repair function score, are as follows: low bracket = under -0.3, middle bracket = from -0.3 up to -0.1, high bracket = -0.1 and over

| alteration | labelValue |
| --- | --- |
| E413T | high bracket |
| D224Q | low bracket |
| Q113P | middle bracket |
| V117I | middle bracket |

input: Exam item: assign R279T to the correct category.
output: low bracket

input: Exam item: assign G193K to the correct category.
output: middle bracket

input: Exam item: assign S296Q to the correct category.
output: high bracket

input: Exam item: assign S71Y to the correct category.
output: high bracket

input: Exam item: assign L49N to the correct category.
output: high bracket

input: Exam item: assign C304G to the correct category.
output: low bracket

input: Exam item: assign A162R to the correct category.
output: low bracket

input: Exam item: assign Q351H to the correct category.
output: high bracket

input: Exam item: assign F466C to the correct category.
output: low bracket

input: Exam item: assign D243H to the correct category.
output: low bracket

input: Exam item: assign S335N to the correct category.
output: high bracket
